Reported IC50 (cell viability) values for the following molecules.
- Test system: MOLM-13
- Condition set: 72 h

{"columns": ["Molecule", "Target system", "IC50 (cell viability)"],
 "data": [
  ["Cn1c2cc(S(C)=O)sc2c2cnn(Cc3cccc(N)c3)c(=O)c21 (stereo unspecified)", "MOLM-13", "> 10 µM"],
  ["C[C@H]1O[C@H](O[C@H]2[C@H](O)[C@@H](O)[C@@H](O[C@H]3[C@H](O)[C@@H](O)C(O)O[C@@H]3CO)O[C@@H]2CO)[C@H](O)[C@@H](O)[C@@H]1N[C@H]1C=C(CO)[C@@H](O)[C@H](O)[C@H]1O (mixture of isomers)", "MOLM-13", "> 10 µM"],
  ["O=C(/C=C/c1cccnc1)NCCCCC1CCN(C(=O)c2ccccc2)CC1", "MOLM-13", "0.00369 µM"],
  ["O=C(CCl)N(CCCNC(=O)C(F)(F)F)c1ccc([N+](=O)[O-])cc1", "MOLM-13", "0.276 µM"],
  ["c1ccc2c(c1)SCc1c-2[nH]c2ccccc12", "MOLM-13", "1.97 µM"],
  ["CNC(=C[N+](=O)[O-])NCCSCc1ccc(CN(C)C)o1", "MOLM-13", "> 10 µM"],
  ["O=C1N[C@@H]2[C@@H](O)[C@@H](O)[C@H](O)[C@@H](CO)N2C1=O", "MOLM-13", "> 10 µM"],
  ["OCCN1C[C@H](O)[C@@H](O)[C@H](O)[C@H]1CO", "MOLM-13", "> 10 µM"],
  ["CCCC(CCC)C(=O)O", "MOLM-13", "> 10 µM"],
  ["NC(CCC(=O)NC(CSCc1ccc(Br)cc1)C(=O)NCC(=O)OC1CCCC1)C(=O)OC1CCCC1 (stereo unspecified)", "MOLM-13", "> 10 µM"],
  ["CN1CC(=O)N2[C@H](c3ccc4c(c3)OCO4)c3[nH]c4ccccc4c3C[C@@H]2C1=O", "MOLM-13", "> 10 µM"],
  ["COc1cc(/C=C/c2ccc(OC)cc2OC)cc(OC)c1", "MOLM-13", "> 10 µM"],
  ["CCC(CC#N)OC(=O)N[C@@H](C)c1cccc(NC(=O)Nc2ccc(-c3cnco3)c(OC)c2)c1 (stereo in doubt)", "MOLM-13", "0.0449 µM"],
  ["CC(C)(CCCCCCCCCCC(C)(C)CC(=O)O)CC(=O)O", "MOLM-13", "> 10 µM"],
  ["O=C(c1c2ccccc2cc2ccccc12)N1CCC(N2CCC[C@@H](C(=O)N3CCOCC3)C2)CC1", "MOLM-13", "2.77 µM"],
  ["CCCCCCCNC=O [N-Heptyl-Formamide]", "MOLM-13", "> 10 µM"]
]}
